Reported inhibition of growth at 10 µM values follow for various molecules
# Test system: SK-MEL-5
# ASSAY EXPLANATION: Growth inhibition of human SK-MEL-5 cells at 10 uM after 48 hrs by coulter counter analysis
# Assay type: functional
# TEST CONTEXT: SK-MEL-5, 48 h, read-out: GI
REPORTED ENDPOINT: inhibition of growth at 10 µM

>>> result("O=C(CCN1CCN(c2ccccc2)CC1)Nc1nc(-c2ccccc2)cs1")
"52.5%"
>>> result("CC(C(=O)Nc1nccs1)N1CCN(c2ccccc2)CC1 (stereo unspecified)")
"< 10%"
>>> result("Cc1cnc(NC(=O)CCN2CCN(c3ccccc3)CC2)s1")
"< 10%"
>>> result("O=C(CCCl)Nc1nc(-c2ccccc2)cs1")
"48.9%"
>>> result("Cc1cnc(NC(=O)CN2CCN(c3ccccc3)CC2)s1")
"< 10%"
>>> result("Cc1cnc(NC(=O)CN2CCN(C)CC2)s1")
"< 10%"
